Please respond with reported IC50 for every item in the list.
# testedSystem: Ba/F3 TEL-JAK1 (Homo sapiens, UniProt P23458)
# Sequence (P23458 whole entry, looked up, change not shown): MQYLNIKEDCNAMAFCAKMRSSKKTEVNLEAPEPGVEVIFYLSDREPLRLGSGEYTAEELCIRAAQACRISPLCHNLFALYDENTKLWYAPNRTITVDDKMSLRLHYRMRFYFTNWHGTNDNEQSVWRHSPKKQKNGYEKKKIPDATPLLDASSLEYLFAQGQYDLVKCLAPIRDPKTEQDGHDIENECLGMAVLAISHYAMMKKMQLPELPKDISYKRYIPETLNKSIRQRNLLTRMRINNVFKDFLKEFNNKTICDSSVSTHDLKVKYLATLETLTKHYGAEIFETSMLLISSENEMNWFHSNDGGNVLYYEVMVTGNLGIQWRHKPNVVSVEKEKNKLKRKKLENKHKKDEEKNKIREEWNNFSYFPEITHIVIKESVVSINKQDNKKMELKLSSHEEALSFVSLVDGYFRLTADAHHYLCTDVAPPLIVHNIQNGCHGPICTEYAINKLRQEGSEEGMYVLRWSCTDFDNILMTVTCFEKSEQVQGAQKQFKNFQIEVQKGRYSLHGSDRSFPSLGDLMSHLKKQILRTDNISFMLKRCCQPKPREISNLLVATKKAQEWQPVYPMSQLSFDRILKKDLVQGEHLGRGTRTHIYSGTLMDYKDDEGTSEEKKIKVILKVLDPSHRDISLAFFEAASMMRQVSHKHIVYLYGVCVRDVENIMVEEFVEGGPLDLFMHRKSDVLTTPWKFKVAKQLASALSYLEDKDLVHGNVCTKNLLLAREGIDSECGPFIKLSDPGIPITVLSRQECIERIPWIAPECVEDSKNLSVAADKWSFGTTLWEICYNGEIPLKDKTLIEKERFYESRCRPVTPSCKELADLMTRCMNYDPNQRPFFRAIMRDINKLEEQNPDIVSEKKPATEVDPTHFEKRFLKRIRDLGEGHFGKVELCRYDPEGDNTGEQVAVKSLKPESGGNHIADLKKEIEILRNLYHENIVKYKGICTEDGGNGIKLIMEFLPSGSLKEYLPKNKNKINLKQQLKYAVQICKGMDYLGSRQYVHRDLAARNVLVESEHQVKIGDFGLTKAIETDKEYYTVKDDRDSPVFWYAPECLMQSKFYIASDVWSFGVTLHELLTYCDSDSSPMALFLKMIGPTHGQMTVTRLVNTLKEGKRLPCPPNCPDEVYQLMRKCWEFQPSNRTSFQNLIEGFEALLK
# experimentDescription: Inhibition of Ba/F3 TEL-JAK1 cell line
# Format: cell-based
# reportedConditions: read-out: IC50 (μM) Ba/F3 TEL-JAK1

Report value: IC50, system: Ba/F3 TEL-JAK1 (Homo sapiens, UniProt P23458), compound: C=CC(=O)Nc1cccc(N(C(=O)OCc2ccccc2)c2ccnc(Nc3cnn(CCN4CCOCC4)c3)n2)c1 [Compound 85A]
8.86 µM

Report value: IC50, system: Ba/F3 TEL-JAK1 (Homo sapiens, UniProt P23458), compound: C=CC(=O)Nc1cccc(N(C(=O)OCc2ccccc2)c2ccnc(Nc3cnn(C)c3)n2)c1 [Compound 83A]
9 µM

Report value: IC50, system: Ba/F3 TEL-JAK1 (Homo sapiens, UniProt P23458), compound: C=CC(=O)Nc1cccc(N(C(=O)OCc2ccccc2)c2ccnc(Nc3cnn(C4CCOCC4)c3)n2)c1 [Compound 84A]
7.41 µM

====

# testedSystem: EGFR L858R Ba/F3 cells (Homo sapiens (Human), UniProt P00533, L858R)
# experimentDescription: Ba/F3 cell growth inhibition (MTS assay), EGFR L858R
# Format: cell-based
# reportedConditions: 100 nM drug; Table G
Given measured EGFR activity (% Control, 100 nM drug) L858R, output Satisfied if it is greater than or equal to 80 % Control and Not satisfied if not.

Could you tell me if the measured EGFR activity (% Control, 100 nM drug) L858R of C=CC(=O)Nc1cccc(N(C(=O)Nc2ccccc2)c2cc(Nc3ccc(N4CCN(C)CC4)cc3)ncn2)c1 [Compound 25A] reaches 80 % Control or more?
Not satisfied

Could you tell me if the measured EGFR activity (% Control, 100 nM drug) L858R of C=CC(=O)Nc1cccc(Nc2cc(N(C(=O)NCc3ccccc3)c3ccc(N4CCN(C)CC4)cc3)ncn2)c1 [Compound 30A] reaches 80 % Control or more?
Not satisfied

Could you tell me if the measured EGFR activity (% Control, 100 nM drug) L858R of C=CC(=O)N1CCC[C@@H]1C(=O)Nc1ccc(OC)c(Nc2cc(N(C)C(=O)NCc3ccccc3)ncn2)c1 [Compound 24A] reaches 80 % Control or more?
Satisfied

Could you tell me if the measured EGFR activity (% Control, 100 nM drug) L858R of C=CC(=O)Nc1cccc(Oc2nc(Nc3ccc(N4CCN(C)CC4)cc3OC)ncc2Cl)c1 [WZ4002, reference compound] reaches 80 % Control or more?
Not satisfied

Could you tell me if the measured EGFR activity (% Control, 100 nM drug) L858R of COc1cc2ncnc(N(C)C(=O)Nc3ccccc3)c2cc1NC(=O)[C@@H]1CCCN1C(=O)CCl [Compound 28A] reaches 80 % Control or more?
Satisfied

Could you tell me if the measured EGFR activity (% Control, 100 nM drug) L858R of C=CC(=O)N1CCC[C@H]1C(=O)Nc1cc2c(N(C)C(=O)NCc3ccccc3)ncnc2cc1OC reaches 80 % Control or more?
Satisfied

Could you tell me if the measured EGFR activity (% Control, 100 nM drug) L858R of C=CC(=O)N1CC[C@@H](CN(C(=O)Nc2ccccc2)c2cc(Nc3ccc(N4CCN(C)CC4)cc3OC)ncn2)C1 [Compound 32A] reaches 80 % Control or more?
Satisfied

Could you tell me if the measured EGFR activity (% Control, 100 nM drug) L858R of C=CC(=O)Nc1cccc(Nc2cc(N(C(=O)Nc3ccccc3)c3ccc(N4CCN(C)CC4)cc3)ncn2)c1 [Compound 26A] reaches 80 % Control or more?
Not satisfied

Could you tell me if the measured EGFR activity (% Control, 100 nM drug) L858R of C=CC(=O)N1CCC[C@H]1C(=O)Nc1ccc(OC)c(Nc2cc(N(C)C(=O)NCc3ccccc3)ncn2)c1 [Compound 23A] reaches 80 % Control or more?
Satisfied
